- Test system: RSV Long strain
- Protocol Summary: Viral cytopathic effect (CPE) assay, RSV Long strain
- Assay type: cell-based, Respiratory Syncytial Virus
- Conditions Used: human respiratory syncytial virus, 144 h, cell viability after 6 days (Cell Counting kit-8)
Test Readout: pEC50
In plain terms, pEC50 is the concentration in mol/L turned into minus its base-10 logarithm.

Lab note: CCOC(=O)CCn1c(CN2C(=O)C3(CC3)c3ccncc32)cc2cc(Cl)cc(F)c21 [Example 13] gave pEC50 of 7.74

Looking up CN(C(=O)CCn1c(CN2C(=O)C3(CC3)c3ccncc32)cc2cc(Cl)ccc21)S(=O)(=O)C1CC1 [Example 19-2] , I found its pEC50 recorded as 7.23

Recorded result, NC1(Cn2c(CN3C(=O)C4(CC4)c4ccncc43)nc3cc(Cl)ccc32)COC1 [Example 39-1] , pEC50: 7.74

pEC50 reported for this compound NC(=O)CCn1c(CN2C(=O)C3(CC3)c3cccnc32)cc2cc(Cl)ccc21 [Example 18-2] : 6.15
